All values here come from PubChem BioAssay (NCATS).

Listed compounds paired with reported activation
test: qHTS assay for small molecule activators of the nuclear factor-kappa B (NF-kB) signaling pathway (AID 651749); conditions: NF-kB-bla ME-180 cells, beta-lactamase FRET ratio, 16 h; stronger effect = higher value; note: series mostly up to about 77 µM; % of control where 0% means no effect
Records with an inconclusive call do not appear. Activity calls are given as the source filed them. Calls come from the whole dose curve; as a rule, active = well fitted activation curve with a large enough effect in the signal ratio; inconclusive = small, poorly fitted or top-dose-only effect, or a change in a side signal; inactive = flat fitted curve, though single readings scatter; the % refers to the signal ratio.

{"compound": "O=C1c2ccccc2C(=O)C1C(=O)C(c1ccccc1)c1ccccc1", "activation": "-1.82% (inactive)"}
{"compound": "CC(C)c1cccc(C(C)C)c1O", "activation": "1.44% (inactive)"}
{"compound": "O=C1c2ccccc2C(=O)c2ccccc21", "activation": "-2.5% (inactive)"}
{"compound": "Nc1ccc([As](=O)(O)O)cc1", "activation": "-0.596% (inactive)"}
{"compound": "C[C@]1(O)CC[C@H]2[C@@H]3CCC4=CC(=O)CC[C@]4(C)[C@@]3(F)[C@@H](O)C[C@@]21C", "activation": "-0.7% (inactive)"}
{"compound": "CC(C)NC(C)C", "activation": "-1.54% (inactive)"}
{"compound": "Nc1nc(N)nc(NC2CC2)n1", "activation": "-2.39% (inactive)"}
{"compound": "Nc1ccccc1C(=O)O", "activation": "1.57% (inactive)"}
{"compound": "[N-]=[N+]=CC(=O)OC[C@H](N)C(=O)O", "activation": "-0.449% (inactive)"}
{"compound": "COP(=S)(OC)Oc1cc(Cl)c(Cl)cc1Cl", "activation": "-1.3% (inactive)"}
{"compound": "CC1(C)C(C=C(Cl)Cl)C1C(=O)OC(C#N)c1cccc(Oc2ccccc2)c1 (configuration not stated)", "activation": "1.83% (inactive)"}
{"compound": "NCCc1ccc(O)cc1", "activation": "-0.88% (inactive)"}
